Record: compiled IC50 on O-acyltransferase (Oryctolagus cuniculus, UniProt G1SFD9) from multiple reports.
measuredAttribute: IC50 (nM)

                                   compound  scaleunit  recordedmeasurement
0  CCCCCCCCN1NN=C(NC(=O)Nc2c(C(C)C)cccc2C(C)C)N1         nM                   59
1  CCCCCc1ccc(NC(=O)Nc2c(C(C)C)cccc2C(C)C)cc1         nM                   32
2  CCCCCCCCCCCCCS(=O)(=O)c1n[nH]c(NC(=O)Nc2c(C(C)C)cccc2C(C)C)n1         nM                 4700
3  CCCCCNC(=O)Nc1c(OCCCNCCc2ccccc2)cccc1N(C)C         nM                  960
4  CC(C)c1cccc(C(C)C)c1NC(=O)NCC1CCc2ccccc21 (stereo not given)         nM                   27
5  Cc1cc(C)c(NC(=O)N(Cc2cccc(-c3nnn(C)n3)c2)C2CCCCCC2)c(C)c1         nM                  100
6  CCCCCCCCCCCCOc1ccc(C(=O)Nc2c(C)cc(C)c3c2OC(C)(C)C3)cc1         nM                   90
7  CN(C)c1cccc(OCCCn2cnc(-c3ccccc3)c2)c1NC(=O)NC1CCCCC1         nM                   73
8  CCCCCCCCCCCCn1cnc(NC(=O)Nc2c(C(C)C)cccc2C(C)C)c1         nM                   35
9  Cc1cc(C)c(NC(=O)N(Cc2cccc(-c3csc(C)n3)c2)C2CCCCCC2)c(C)c1         nM                  180

* * *

Record: compiled IC50 on O-acyltransferase (Oryctolagus cuniculus, UniProt G1SFD9) from multiple reports.
measuredAttribute: IC50 (µM)

>>> df
                                 testsmiles  recordedmeasurement
0  CCCCCCCCC(C)(C)C(=O)Nc1c(C)cc(C)c2c1OC(C)(C)C2                 0.14
1  Cc1cc(C)c(NC(=O)N(Cc2cc(-c3ccccc3)cs2)C2CCCCCC2)c(C)c1                0.036
2  Cc1cc(C)c(NC(=O)N(Cc2ccc(-n3ccnc3)cc2)C2CCCCCC2)c(C)c1                0.047
3  Cc1cc(C)c(NC(=O)C(C)(C)CCCCOc2ccc(Cl)cc2)c2c1CC(C)(C)O2                 0.33
4  CCCCCCCCCCCCCCc1ccc(NC(=O)Nc2c(C(C)C)cccc2C(C)C)cc1                  0.5

* * *

Record: compiled IC50 on O-acyltransferase (Oryctolagus cuniculus, UniProt G1SFD9) from multiple reports.
measuredAttribute: IC50 (nM)

>>> df
                                 testsmiles  measuredattribute  scaleunit  recordedmeasurement
0  CCCCCNC(=O)Nc1c(SCCCn2cnc(-c3ccccc3)c2C)cccc1N(C)C               IC50         nM                   56
1  CCCCCCCCCCC1(C(=O)Nc2c(C)ccc3c2OC(C)(C)C3)CCCC1               IC50         nM                  240
2  Cc1cc(C)c(NC(=O)N(Cc2cccc(-c3cc[nH]n3)c2)C2CCCCCC2)c(C)c1               IC50         nM                   65
3  Cc1cc(C)c(NC(=O)N(Cc2cccc(-c3cnn(C)c3)c2)C2CCCCCC2)c(C)c1               IC50         nM                   44
4  Cc1cc(C)c(NC(=O)N(Cc2ccc(-c3nnc(C)o3)cc2)C2CCCCCC2)c(C)c1               IC50         nM                   27
5  CCCCCCCCCCCCc1cc(NC(=O)Nc2c(C(C)C)cccc2C(C)C)on1               IC50         nM                   19
6  Cc1cc(C)c(NC(=O)N(Cc2ccc(-c3ccnn3C)cc2)C2CCCCCC2)c(C)c1               IC50         nM                   24
7  CCCCCNC(=O)Nc1c(OCCCn2cc(-c3ccc(OC)cc3)nc2C)cccc1N(C)C               IC50         nM                  160
8  CCCCCCc1ccc(NC(=O)Nc2c(C(C)C)cccc2C(C)C)cc1               IC50         nM                   26
9  CCCCCCCCCCCc1nnc(NC(=O)Nc2c(C(C)C)cccc2C(C)C)s1               IC50         nM                   39
